Entries with their measured Kd, system Kelch domain of human KEAP1 (321-624 aa) (Homo sapiens (Human)):
observation_type: Kd

| compound | test_value |
| --- | --- |
| CCn1nnc2c(C)c(C(c3cnc(C)c(CN4CC5(CCOCC5)Oc5ncc(C)cc5S4(=O)=O)c3)C(C)(C)C(=O)O)ccc21 (racemic) [Example 61] | < 1 nM |
| Cc1ccc([C@H](CC(=O)O)c2ccc3c(nnn3C3CC3)c2C)cc1CN1C[C@@H]2COCCN2c2ncccc2S1(=O)=O (single isomer, unassigned) [Example 24] | 0.264 nM |
| Cc1ccc(C(CC(=O)O)c2ccn3c(C(F)F)nnc3c2C)cc1CN1C[C@@H]2CCCCN2c2ncccc2S1(=O)=O (stereo in doubt) [Example 446] | < 1 nM |
| Cc1ccc([C@H](CC(=O)O)c2ccn3c(C(F)F)nnc3c2C)cc1CN1C[C@H]2CCCN2c2ncc(C#N)cc2S1(=O)=O (single isomer, unassigned) [Example 540] | < 1 nM |
| CCc1nnc2c(C)c(C(CC(=O)O)c3ccc(C)c(CN4C[C@H]5CCCN5c5ccccc5S4(=O)=O)c3)ccn12 (some centres unmarked) [Example 278] | < 1 nM |
| Cc1cnc2c(c1)S(=O)(=O)N(Cc1cc([C@@H](c3ccn4c(C5CC5)nnc4c3C)C(C)(C)C(=O)O)ccc1C)CC1(COC1)O2 (single isomer, unassigned) [Example 622] | 2530 nM |
| Cc1ccc([C@H](CC(=O)O)c2ccc3c(nnn3CC3CC3)c2C)cc1CN1C[C@@]2(C)CCCN2c2ncccc2S1(=O)=O (single isomer, unassigned) [Example 82] | 80 nM |
| Cc1ccc(C(CC(=O)O)c2ccn3c(C(F)F)nnc3c2C)cc1CN1C[C@@H]2CCCN2c2ncc(C#N)cc2S1(=O)=O (mixture of isomers) [Example 542] | < 1 nM |
| Cc1ccc(C(CC(=O)O)c2ccn3c(C(F)F)nnc3c2C)cc1CN1C[C@H]2CCCN2c2ncccc2S1(=O)=O (mixture of isomers) [Example 449] | < 1 nM |
| Cc1ccc([C@@H](CC(=O)O)c2ccn3c(C(F)F)nnc3c2C)cc1CN1CC2(CC2)Oc2ncc(Cl)cc2S1(=O)=O (single isomer, unassigned) [Example 531] | < 1 nM |
| Cc1ccc([C@@H](CC(=O)O)c2cc(OC3CC3)c3c(c2)nnn3C)cc1CN1C[C@H]2CCCN2c2ncccc2S1(=O)=O (single isomer, unassigned) [Example 6] | 0.089 nM |

---

biological target: Kelch domain of human KEAP1 (321-624 aa) (Homo sapiens (Human), UniProt Q14145)
Sequence (Q14145 321-624): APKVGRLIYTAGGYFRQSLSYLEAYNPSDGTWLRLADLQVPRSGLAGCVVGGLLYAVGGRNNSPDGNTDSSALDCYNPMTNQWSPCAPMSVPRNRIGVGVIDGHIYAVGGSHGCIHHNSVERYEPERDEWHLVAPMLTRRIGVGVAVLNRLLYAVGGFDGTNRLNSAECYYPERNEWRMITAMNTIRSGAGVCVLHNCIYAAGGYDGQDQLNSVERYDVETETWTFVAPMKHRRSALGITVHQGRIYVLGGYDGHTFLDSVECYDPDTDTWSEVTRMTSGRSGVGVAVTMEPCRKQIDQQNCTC
pKd: −log10 of the molar value.
observation_type: pKd

| compound | censoring_qualifier | test_value |
| --- | --- | --- |
| Cc1cnc2c(c1)S(=O)(=O)N(Cc1cc([C@@H](CC(=O)O)c3ccn4c(C(F)F)nnc4c3C)ccc1C)CC1(CC1)O2 (single isomer, unassigned) | > | 9.00 |
| Cc1cnc2c(c1)S(=O)(=O)N(Cc1cc([C@H](c3ccn4c(C(F)F)nnc4c3C)C(C)(C)C(=O)O)ccc1C)CC1(CC1)O2 (single isomer, unassigned) | = | 7.28 |
| Cc1cnc2c(c1)S(=O)(=O)N(Cc1cc([C@H](c3ccn4c(C(F)(F)F)nnc4c3C)C(C)(C)C(=O)O)ccc1C)CC1(CNC1)O2 (single isomer, unassigned) | = | 4.49 |
| Cc1ccc([C@H](CC(=O)O)c2ccn3c(C(F)(F)F)nnc3c2C)nc1CN1CC2(CC2)Oc2ncccc2S1(=O)=O (single isomer, unassigned) | > | 9.00 |
| Cc1ccc([C@@H](CC(=O)O)c2cc(OC(F)F)c3c(c2)nnn3C)cc1CN1C[C@H]2CCCCN2c2ncccc2S1(=O)=O (single isomer, unassigned) | = | 10.39 |
| Cc1ccc([C@@H](c2ccn3c(C(F)F)nnc3c2C)C(C)(C)C(=O)O)nc1CN1CC2(CC2)Oc2nc(OCCN3CCCC3)c(C)cc2S1(=O)=O (single isomer, unassigned) | = | 5.35 |
| Cc1cnc([C@@H](c2ccn3c(C(F)(F)F)nnc3c2C)C(C)(C)C(=O)O)cc1CN1CC2(CC2)Oc2nc(OCCN3CCCC3)c(C)cc2S1(=O)=O (single isomer, unassigned) | > | 9.00 |
| Cc1ccc([C@@H](c2ccn3c(C(F)(F)F)nnc3c2C)C(C)(C)C(=O)O)cc1CN1CC2(CC2)Oc2ncccc2S1(=O)=O (single isomer, unassigned) | > | 9.00 |
| CC[C@@H]1CN(Cc2cc(C(CC(=O)O)c3ccn4c(C(F)(F)F)nnc4c3)ccc2C)S(=O)(=O)c2cccnc2O1 (single isomer, unassigned) | > | 9.00 |
| Cc1cnc2c(c1)S(=O)(=O)N(Cc1cc([C@H](c3ccn4c(C(F)(F)F)nnc4c3C)C(C)(C)C(=O)O)ccc1C)CC1(CCOCC1)O2 (single isomer, unassigned) | = | 5.89 |

---

target: Kelch domain of human KEAP1 (321-624 aa) (Homo sapiens (Human));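 also: Ligand-induced melting temperature shift of E. coli-expressed KEAP1 Kelch protein, Kd estimated from concentration-response curves of ΔTm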
# Kd values compiled below

| molecule | Kd |
| --- | --- |
| Cc1c(C(CC(=O)O)c2ccc(Cl)c(CN3CC4CCCCN4c4ncc(F)cc4S3(=O)=O)c2)ccn2c(C(F)(F)F)nnc12 (stereo not drawn) | < 1 nM |
| Cc1c([C@H](CC(=O)O)c2ccc(Cl)c(CN3CC4CCCCN4c4ncccc4S3(=O)=O)c2)ccn2c(C(F)(F)F)nnc12 (single isomer, unassigned) | 2.2 nM |
| Cc1cnc2c(c1)S(=O)(=O)N(Cc1nc([C@H](c3ccn4c(C(F)(F)F)nnc4c3C)C(C)(C)C(=O)O)ccc1C)CC1(CNC1)O2 (single isomer, unassigned) | 131000 nM |
| CC[C@@H]1CN(Cc2cc(C(CC(=O)O)c3ccn4c(C)nnc4c3)ccc2C)S(=O)(=O)c2cccnc2O1 (mixture of isomers) | < 1 nM |
| Cc1cc2cc(C(CC(=O)O)c3ccc(C)c(CN4C[C@H]5CCCCN5c5ncccc5S4(=O)=O)c3)n(C)c2nn1 (stereo in doubt) | < 1 nM |
| Cc1ncc([C@@H](c2ccn3c(C(F)(F)F)nnc3c2C)C(C)(C)C(=O)O)cc1CN1C[C@@H]2CCCCN2c2ncc(C#N)cc2S1(=O)=O (single isomer, unassigned) | < 1 nM |
| Cc1ccc(C(CC(=O)O)c2ccn3c(C(F)F)nnc3c2C)cc1CN1CC2(CC2)Oc2ncc(F)cc2S1(=O)=O (stereo not drawn) | < 1 nM |
| Cc1ccc([C@H](CC(=O)O)c2ccn3c(C(F)F)nnc3c2C)cc1CN1CC2(CC2)Oc2ncc(F)cc2S1(=O)=O (single isomer, unassigned) | < 1 nM |
| CCn1nnc2c(C)c([C@H](c3ccc(C)c(CN4CC5(CCOCC5)Oc5ncccc5S4(=O)=O)n3)C(C)(C)C(=O)O)ccc21 (single isomer, unassigned) | < 1 nM |
| Cc1cnc2c(c1)S(=O)(=O)N(Cc1cc([C@H](c3cc4cc(C)nnc4n3C)C(C)(C)C(=O)O)ccc1C)CC1(CC1)O2 (single isomer, unassigned) | < 1 nM |
| Cc1ccc(C(CC(=O)O)c2ccn3c(C(F)(F)F)nnc3c2C)nc1CN1C[C@@H]2CCCCN2c2ncccc2S1(=O)=O (stereo in doubt) | < 1 nM |
| Cc1ccc([C@@H](CC(=O)O)c2ccn3c(C(F)(F)F)nnc3c2C)nc1CN1C[C@@H]2CCCCN2c2ncc(C#N)cc2S1(=O)=O (single isomer, unassigned) | < 1 nM |
| Cc1ccc([C@H](CC(=O)O)c2ccn3c(C(F)(F)F)nnc3c2C)cc1CN1C[C@@H]2CN(C)CCN2c2ncccc2S1(=O)=O (single isomer, unassigned) | 30 nM |
| CCn1nnc2c(C)c(C(CC(=O)O)c3ccc(C)c(CN4C[C@@H]5CCCCN5c5ncccc5S4(=O)=O)n3)ccc21 (stereo in doubt) | < 1 nM |
| Cc1ccc([C@@H](CC(=O)O)c2ccn3c(C(F)(F)F)nnc3c2)cc1CN1C[C@@H]2CCCN2c2ncccc2S1(=O)=O (single isomer, unassigned) | < 1 nM |
| Cc1ccc([C@@H](CC(=O)O)c2cc(OC(F)F)c3c(c2)nnn3C)cc1CN1C[C@H]2CCCN2c2ncccc2S1(=O)=O (single isomer, unassigned) | < 1 nM |
| Cc1ccc([C@@H](CC(=O)O)c2ccn3c(C(F)(F)F)nnc3c2C)nc1CN1C[C@@H]2CCCCN2c2ncccc2S1(=O)=O (single isomer, unassigned) | < 1 nM |
| CCc1nnc2c(C)c([C@@H](CC(=O)O)c3ccc(C)c(CN4C[C@H]5CCCN5c5ccccc5S4(=O)=O)c3)ccn12 (single isomer, unassigned) | < 1 nM |
| Cc1ccc([C@@H](CC(=O)O)c2ccc3c(nnn3CC3CC3)c2C)cc1CN1C[C@@]2(C)CCCN2c2ncccc2S1(=O)=O (single isomer, unassigned) | 5.5 nM |
| CC[C@@H]1CN(Cc2cc([C@H](CC(=O)O)c3cc(OC(F)F)c4c(c3)nnn4C)ccc2C)S(=O)(=O)c2cccnc2O1 (single isomer, unassigned) | < 1 nM |
| Cc1cnc2c(c1)S(=O)(=O)N(Cc1nc([C@H](c3ccn4c(C(F)F)nnc4c3C)C(C)(C)C(=O)O)ccc1C)CC1(CNC1)O2 (single isomer, unassigned) | 1.08 nM |
